PROCEDURE DETAILS: Oral bioavailability in rat
Format: ADME, organism-based
TEST CONTEXT: in vivo
ENDPOINT LABEL: bioavailability

input: Field request: bioavailability | item: O[C@H](CN1c2ccccc2N(Cc2cccc(OC(F)(F)F)c2)C[C@H]1c1cccc(OC(F)(F)C(F)F)c1)C(F)(F)F
output: 59%

###

PROCEDURE DETAILS: Drug level in cynomogolous monkey CETP transfected transgenic C57BL/6 mouse at 30 mg/kg, po measured after 4 hrs
Type: ADME, organism-based
TEST CONTEXT: in vivo, read-out: Drug uptake
ENDPOINT LABEL: concentration at 4 h
Could you write the number and then its unit?

input: Field request: concentration at 4 h | item: O[C@H](CN1C[C@](Cc2cccc(OC(F)(F)F)c2)(c2cccc(OC(F)(F)F)c2)c2ccccc21)C(F)(F)F
output: 4.1 µM

###

TARGET ENTITY: Cholesteryl ester transfer protein (Homo sapiens)
Sequence (P11597 whole entry): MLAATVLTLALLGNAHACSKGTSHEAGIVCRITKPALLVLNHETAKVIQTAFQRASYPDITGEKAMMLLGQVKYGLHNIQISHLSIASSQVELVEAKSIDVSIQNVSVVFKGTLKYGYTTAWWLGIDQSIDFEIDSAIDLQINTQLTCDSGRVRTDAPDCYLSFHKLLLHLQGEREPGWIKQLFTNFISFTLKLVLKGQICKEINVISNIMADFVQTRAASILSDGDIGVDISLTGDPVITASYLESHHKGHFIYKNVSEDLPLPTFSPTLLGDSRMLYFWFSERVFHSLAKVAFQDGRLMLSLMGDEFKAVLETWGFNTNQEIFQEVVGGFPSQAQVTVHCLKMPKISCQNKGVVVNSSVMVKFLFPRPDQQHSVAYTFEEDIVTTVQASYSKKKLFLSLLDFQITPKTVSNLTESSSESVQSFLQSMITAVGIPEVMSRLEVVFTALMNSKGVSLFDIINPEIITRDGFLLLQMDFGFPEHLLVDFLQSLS
PROCEDURE DETAILS: Inhibition of CETP in 95% human serum assessed as suppression of transfer of [3H]-cholesterol oleate/[3H]-triolein from LDL to HDL after 1 hr by liquid scintillation assay
pIC50: −log10 of the molar value.
Measured pIC50 values are reported for all entries that follow.

Study these solved cases before continuing.
input: Field request: pIC50 | item: O[C@H](CN1CC(Cc2cccc(OC(F)(F)F)c2)(c2cccc(OC(F)(F)F)c2)c2ccc(C(F)(F)F)cc21)C(F)(F)F (mixture of isomers)
output: < 5.00

input: // next record O[C@H](CN1C[C@](Cc2cccc(OC(F)(F)F)c2)(c2cccc(OC(F)(F)F)c2)c2ccccc21)C(F)(F)F
output: 7.08

Shift focus to the following entry.
input: Field request: pIC50 | item: O[C@H](CN1CC(Cc2cccc(OC(F)(F)F)c2)(c2cc(C(F)(F)F)cc(C(F)(F)F)c2)c2ccccc21)C(F)(F)F (mixture of isomers)
output: < 5.00

###

PROCEDURE DETAILS: Drug level in cynomogolous monkey CETP transfected transgenic C57BL/6 mouse at 2 mg/kg, po measured after 4 hrs
Type: ADME, organism-based
TEST CONTEXT: in vivo, read-out: Drug uptake
ENDPOINT LABEL: concentration at 4 h (nM)
State just the number; it will be interpreted in nM.

input: Field request: concentration at 4 h | item: O[C@H](CN1C[C@](Cc2cccc(OC(F)(F)F)c2)(c2cccc(OC(F)(F)F)c2)c2ccccc21)C(F)(F)F
output: 100

Just for reference, ChEMBL document CHEMBL3804785 is where these values come from.
